- tested.on: T1, 4H908-bA
- T1 chain: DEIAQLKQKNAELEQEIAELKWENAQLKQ
- method.summary: two-hybrid library CCNG1;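 further: natural log of median RNA to DNA barcode read ratio; higher means stronger binding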
# maps each entry to its interaction score
value.type: interaction score

> print(dat)
                                     binder         value.type  reading
1  DEIAQLKQENAELEQKIAELKWKNAQLEQ [4H687-bA]  interaction score   -0.749
2  DKNAQLKQENAELKQEIAELEWKIAQLKQ [4H3782-bA]  interaction score    -1.42
3  DENAQLKQKIAELEQKNAELEWKIAQLEQ [4H1845-bA]  interaction score    -1.42
4  DKIAQLEQKNAELEQEIAELKWEIAQLKQ [4H2442-bA]  interaction score   -0.745
5  DKIAQLKQEIAELEQKNAELKWEIAQLKQ [4H2618-bA]  interaction score   -0.916
6   DEIAQLEQEIAELKQEIAELEWKNAQLKQ [4H72-bA]  interaction score   -0.464
7  DKIAQLKQEIAELKQKIAELKWENAQLEQ [4H2667-bA]  interaction score   -0.691
8  DEIAQLKQKIAELKQKNAELEWENAQLEQ [4H883-bA]  interaction score    -1.33
9  DEIAQLKQENAELKQKNAELEWEIAQLKQ [4H754-bA]  interaction score   -0.879

src = paper PMC10397247
